tested on: ATP; assay: switch fluorescence ratio, 500 uM ATP over buffer (Cy3 cluster intensity, sum of 5 cycles each) (fold (ratio)); higher = stronger signal-on switching upon ATP binding; sequences stand for … in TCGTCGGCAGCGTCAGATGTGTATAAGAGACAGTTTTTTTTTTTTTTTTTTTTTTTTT…TC; conditions: aptamer strand: ATP DNA aptamer (quencher-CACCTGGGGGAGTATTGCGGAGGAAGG + anchor), 100 nM annealed; ATP concentration: 500 uM;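 further: ATP exposure 15 min at 22 °C before imaging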
readout-type: switch fluorescence ratio
Just the number, please, no unit after it.

// worked examples, switch fluorescence ratio included
{"columns": ["item-sequence", "switch fluorescence ratio"],
 "data": [
  ["GGGTAAGGGC", 1.01],
  ["CAGGGCATGG", 1.01],
  ["GGCGTAATAT", 1.54]
]}

Value of measured switch fluorescence ratio for the entry "TATATTCAGT" : 1.02

Value of measured switch fluorescence ratio for the entry "ACGGGCGCAG" : 0.994

###

test system: ATP; assay: switch fluorescence ratio, 500 uM ATP over buffer (Cy3 cluster intensity, sum of 5 cycles each) (fold (ratio)); higher = stronger signal-on switching upon ATP binding; sequences stand for … in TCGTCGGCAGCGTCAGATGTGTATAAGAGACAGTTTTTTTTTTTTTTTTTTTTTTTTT…TC; details: aptamer strand: ATP DNA aptamer (quencher-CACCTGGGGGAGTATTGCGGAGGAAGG + anchor), 100 nM annealed; ATP concentration: 500 uM;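 further: ATP exposure 15 min at 22 °C before imaging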
readout-type: switch fluorescence ratio
Just the number, please, no unit after it.

{"columns": ["item-sequence", "system", "switch fluorescence ratio"],
 "data": [
  ["TTTAATCACC", "ATP", 1.02],
  ["CGATTTTGGC", "ATP", 0.962],
  ["TTAGAGACTG", "ATP", 1.08],
  ["TTCGGATTGG", "ATP", 1.01],
  ["AGAAAAGTAC", "ATP", 1.08],
  ["GTTTATATCC", "ATP", 1.02]
]}

Value of measured switch fluorescence ratio for the entry "AGGGTCAGTG" : 1.02

Value of measured switch fluorescence ratio for the entry "GGATTTGGTT" : 1.04

###

tested on: ATP; assay: switch fluorescence ratio, 500 uM ATP over buffer (Cy3 cluster intensity, sum of 5 cycles each) (fold (ratio)); higher = stronger signal-on switching upon ATP binding; sequences stand for … in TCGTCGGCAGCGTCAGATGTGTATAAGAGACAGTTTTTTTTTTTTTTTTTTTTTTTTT…TC; conditions: aptamer strand: ATP DNA aptamer (quencher-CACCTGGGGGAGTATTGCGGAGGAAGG + anchor), 100 nM annealed; ATP concentration: 500 uM;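 further: ATP exposure 15 min at 22 °C before imaging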
readout-type: switch fluorescence ratio
Just the number, please, no unit after it.

{"columns": ["item-sequence", "system", "switch fluorescence ratio"],
 "data": [
  ["GGGCCTGGTG", "ATP", 1.42],
  ["TGATGTAGAG", "ATP", 0.99],
  ["AATTAGGGAA", "ATP", 1.01],
  ["TTGGACTACT", "ATP", 0.984]
]}

Value of measured switch fluorescence ratio for the entry "TGGACGTTGA" : 0.994

Value of measured switch fluorescence ratio for the entry "ATTAAGGGGT" : 1.07

Value of measured switch fluorescence ratio for the entry "CAGGCCGTAT" : 1.01

Value of measured switch fluorescence ratio for the entry "AAGGGCCCAA" : 1

Value of measured switch fluorescence ratio for the entry "TTTTATCGAG" : 0.989

Value of measured switch fluorescence ratio for the entry "CCTAGGGTTC" : 0.984

Value of measured switch fluorescence ratio for the entry "ATCGTAATTT" : 0.971

Value of measured switch fluorescence ratio for the entry "GGTGTTTTCA" : 0.988

Value of measured switch fluorescence ratio for the entry "GTTTTGTTGA" : 1.02

Value of measured switch fluorescence ratio for the entry "TGCGTTCGTC" : 0.993

Value of measured switch fluorescence ratio for the entry "ACTCAATCTG" : 1.04

Value of measured switch fluorescence ratio for the entry "TTTGGAATGG" : 0.991

Value of measured switch fluorescence ratio for the entry "GGGGCTAATG" : 1.01

Value of measured switch fluorescence ratio for the entry "GATGCTTCTG" : 1.02

Value of measured switch fluorescence ratio for the entry "AGTCGGTGCA" : 0.985

Value of measured switch fluorescence ratio for the entry "TCAATGGGAA" : 0.967

Value of measured switch fluorescence ratio for the entry "GAGAGTCATC" : 1.04

Value of measured switch fluorescence ratio for the entry "TTAAATTTCT" : 1.02

Value of measured switch fluorescence ratio for the entry "AGTTGTTTTG" : 0.998

Value of measured switch fluorescence ratio for the entry "AGATGACTGA" : 0.997

Value of measured switch fluorescence ratio for the entry "CTTTGGGTGG" : 1.03

Value of measured switch fluorescence ratio for the entry "CGTTGATGTC" : 1.01

Value of measured switch fluorescence ratio for the entry "TTAACATATA" : 1.02

Value of measured switch fluorescence ratio for the entry "CATGGTTGCG" : 0.987

###

Measured switch fluorescence ratio accompanies every entry in the list below.
tested on: ATP; assay: switch fluorescence ratio, 500 uM ATP over buffer (Cy3 cluster intensity, sum of 5 cycles each) (fold (ratio)); higher = stronger signal-on switching upon ATP binding; sequences stand for … in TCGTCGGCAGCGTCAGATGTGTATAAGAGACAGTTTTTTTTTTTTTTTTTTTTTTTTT…TC; conditions: aptamer strand: ATP DNA aptamer (quencher-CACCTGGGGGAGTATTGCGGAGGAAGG + anchor), 100 nM annealed; ATP concentration: 500 uM;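 further: ATP exposure 15 min at 22 °C before imaging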

// worked examples, switch fluorescence ratio included
{"columns": ["item-sequence", "value-reported"],
 "data": [
  ["ACGACGAAAC", 3.35],
  ["TTTTTCTGCT", 0.979]
]}

Value of measured switch fluorescence ratio for the entry "TAGCATTGGT" : 0.99

Value of measured switch fluorescence ratio for the entry "TCTTGGGCCG" : 1.03

###

tested on: ATP; assay: switch fluorescence ratio, 500 uM ATP over buffer (Cy3 cluster intensity, sum of 5 cycles each) (fold (ratio)); higher = stronger signal-on switching upon ATP binding; sequences stand for … in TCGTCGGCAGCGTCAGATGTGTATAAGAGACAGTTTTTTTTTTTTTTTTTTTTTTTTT…TC; conditions: aptamer strand: ATP DNA aptamer (quencher-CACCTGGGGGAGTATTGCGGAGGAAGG + anchor), 100 nM annealed; ATP concentration: 500 uM;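 further: ATP exposure 15 min at 22 °C before imaging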
readout-type: switch fluorescence ratio
Just the number, please, no unit after it.

Value of measured switch fluorescence ratio for the entry "ATCAGAGTGC" : 1.03

Value of measured switch fluorescence ratio for the entry "GTGCGGAGTG" : 0.97

###

Measured switch fluorescence ratio accompanies every entry in the list below.
system: ATP; assay: switch fluorescence ratio, 500 uM ATP over buffer (Cy3 cluster intensity, sum of 5 cycles each) (fold (ratio)); higher = stronger signal-on switching upon ATP binding; sequences stand for … in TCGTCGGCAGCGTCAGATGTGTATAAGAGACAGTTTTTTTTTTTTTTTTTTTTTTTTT…TC; settings: aptamer strand: ATP DNA aptamer (quencher-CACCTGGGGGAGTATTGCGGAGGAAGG + anchor), 100 nM annealed; ATP concentration: 500 uM;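 further: ATP exposure 15 min at 22 °C before imaging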
Just the number, please, no unit after it.

// worked examples, switch fluorescence ratio included
{"columns": ["item-sequence", "switch fluorescence ratio"],
 "data": [
  ["TGTTAGCCGA", 1.02],
  ["AGAGCATGAT", 1.03]
]}

Short answer on ATP for "TTTACGGGTC" , switch fluorescence ratio: 0.981

Short answer on ATP for "TCTAACGCTG" , switch fluorescence ratio: 1.13

Short answer on ATP for "GGGGGTATAC" , switch fluorescence ratio: 1.28

Short answer on ATP for "TTAGGGGAAG" , switch fluorescence ratio: 1.01

Short answer on ATP for "TACTCGGATT" , switch fluorescence ratio: 0.996

###

Measured switch fluorescence ratio accompanies every entry in the list below.
system: ATP; experiment: switch fluorescence ratio, 500 uM ATP over buffer (Cy3 cluster intensity, sum of 5 cycles each) (fold (ratio)); higher = stronger signal-on switching upon ATP binding; sequences stand for … in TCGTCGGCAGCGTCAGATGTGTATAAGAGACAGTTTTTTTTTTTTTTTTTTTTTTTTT…TC; conditions: aptamer strand: ATP DNA aptamer (quencher-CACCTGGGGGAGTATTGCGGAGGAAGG + anchor), 100 nM annealed; ATP concentration: 500 uM;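 further: ATP exposure 15 min at 22 °C before imaging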
Just the number, please, no unit after it.

// worked examples, switch fluorescence ratio included
{"columns": ["item-sequence", "switch fluorescence ratio"],
 "data": [
  ["TTTATTTTTG", 0.992],
  ["TATTGGTTCA", 0.996],
  ["GGTTTTCGTT", 0.99],
  ["GGATGGTGGA", 0.997],
  ["GCGCATAAGG", 1.04]
]}

Value of measured switch fluorescence ratio for the entry "TTTGGTGTCC" : 0.984

Value of measured switch fluorescence ratio for the entry "TTTTCCCGGA" : 1.01

Value of measured switch fluorescence ratio for the entry "ATTATTCTTT" : 1.01

Value of measured switch fluorescence ratio for the entry "TTGCTTGCGT" : 1.01

Value of measured switch fluorescence ratio for the entry "AAGTTTTTTC" : 1.01

Value of measured switch fluorescence ratio for the entry "TGGGCCAAGC" : 0.995

Value of measured switch fluorescence ratio for the entry "TTGGTTTACG" : 1.02
